For each entry below, report its Anti-bacterial activity (MIC), strain ECO− 15-4 value.
System: Escherichia coli (including ESBLs, non-ESBLs)
Experiment: MIC, two-fold agar dilution (CLSI), clinical isolates
Format: cell-based
Details: clinical isolate ECO− 15-4

compound: CCCC[C@H](CC(=O)NO)C(=O)N1CC2(CC2)C[C@H]1C(=O)Nc1ccno1 [Example 54]
result: > 32 mg/L
//
compound: O=C(C[C@@H](CC1CCCC1)C(=O)N1CC2(CC2)C[C@H]1C(=O)Nc1nccs1)NO [Example 72]
result: 16 mg/L
//
compound: O=CN(O)C[C@@H](CC1CCCC1)C(=O)N1CC2(CC2)C[C@H]1c1nc2ccccc2[nH]1 [Example 42]
result: 32 mg/L
//
compound: CCCC[C@H](CC(=O)NO)C(=O)N1CC2(CC2)C[C@H]1C(=O)Nc1cc(C(C)(C)C)on1 [Example 55]
result: > 32 mg/L
//
compound: CCCC[C@H](CC(=O)NO)C(=O)N1CC2(CC2)C[C@H]1C(=O)Nc1cccnn1 [Example 48]
result: > 32 mg/L
//
compound: CCCC[C@H](CC(=O)NO)C(=O)N1CC2(CC2)C[C@H]1C(=O)Nc1nc(C)cs1 [Example 51]
result: > 32 mg/L

Can you give me Anti-bacterial activity (MIC), strain ECO− 15-4 for all of these, one by one?
1. CCCC[C@H](CC(=O)NO)C(=O)N1CC2(CC2)C[C@H]1C(=O)Nc1ncccc1F [Example 49]
2. CCCC[C@H](CC(=O)NO)C(=O)N1CC2(CC2)C[C@H]1C(=O)Nc1ncco1 [Example 53]
3. O=C(C[C@@H](CC1CCCC1)C(=O)N1CC2(CC2)C[C@@H]1c1nc2ccccc2[nH]1)NO [Example 76]
4. O=C(C[C@@H](CC1CCCC1)C(=O)N1CC2(CC2)C[C@H]1C(=O)NC1CC1)NO [Example 68]
5. CCCC[C@H](CC(=O)NO)C(=O)N1CC2(CC2)C[C@H]1C(=O)Nc1ccc(F)cn1 [Example 46]
6. O=C(C[C@@H](CC1CCCC1)C(=O)N1CC2(CC2)C[C@H]1C(=O)Nc1nncs1)NO [Example 74]
7. CCCC[C@H](CC(=O)NO)C(=O)N1CC2(CCCC2)C[C@H]1C(=O)Nc1ccc(F)cn1 [Example 78]
8. O=C(C[C@@H](CC1CCCC1)C(=O)N1CC2(CC2)C[C@H]1C(=O)Nc1cnccn1)NO [Example 62]

Result string:
1: > 32 mg/L; 2: > 32 mg/L; 3: > 32 mg/L; 4: > 32 mg/L; 5: > 32 mg/L; 6: > 32 mg/L; 7: > 32 mg/L; 8: 16 mg/L

Can you give me Anti-bacterial activity (MIC), strain ECO− 15-4 for all of these, one by one?
1. CCCC[C@H](CC(=O)NO)C(=O)N1CC2(CC2)C[C@H]1C(=O)Nc1cnn(CCN(C)C)c1 [Example 52]
2. Cc1cnc(NC(=O)[C@@H]2CC3(CC3)CN2C(=O)[C@@H](CC(=O)NO)CC2CCCC2)s1 [Example 65]

Result string:
1: > 32 mg/L; 2: 8 mg/L

###

System: methicillin-sensitive Staphylococcus epidermidis (MSSE)
Assay: MIC, two-fold agar dilution (CLSI), clinical isolates
Format: cell-based
Details: clinical isolate MSSE 15-5
Binary call on Anti-bacterial activity (MIC), strain MSSE 15-5: satisfied from 1 µg/mL upward, not satisfied beneath that.

Use the examples below as a reference point.
compound: O=CN(O)C[C@@H](CC1CCCC1)C(=O)N1CC2(CC2)C[C@H]1C(=O)Nc1nccs1 (stereo in doubt)
label_class: not satisfied
--
compound: O=C(C[C@@H](CC1CCCC1)C(=O)N1CC2(CC2)C[C@H]1C(=O)Nc1cnccn1)NO
label_class: not satisfied
--
compound: CCCC[C@H](CC(=O)NO)C(=O)N1CC2(CC2)C[C@H]1C(=O)Nc1ncc(C)s1
label_class: not satisfied
--
compound: CCCC[C@H](CC(=O)NO)C(=O)N1CC2(CC2)C[C@H]1C(=O)Nc1ccno1
label_class: satisfied
--
compound: CCCC[C@H](CC(=O)NO)C(=O)N1CC2(CC2)C[C@H]1C(=O)Nc1cccnn1
label_class: satisfied
--
compound: O=C(C[C@@H](CC1CCCC1)C(=O)N1CC2(CC2)C[C@H]1C(=O)Nc1ncccc1F)NO
label_class: not satisfied
--
compound: CCCC[C@H](CC(=O)NO)C(=O)N1CC2(CC2)C[C@H]1C(=O)NC1CC1
label_class: satisfied
--
compound: CCCC[C@H](CC(=O)NO)C(=O)N1CC2(CC2)C[C@H]1C(=O)Nc1cc(C)on1
label_class: not satisfied

Query string: Hi, just wondering whether O=C(C[C@@H](CC1CCCC1)C(=O)N1CC2(CC2)C[C@H]1C(=O)Nc1ncco1)NO shows Anti-bacterial activity (MIC), strain MSSE 15-5 of 1 µg/mL or higher.
Result string: satisfied

Query string: Hi, just wondering whether O=C(C[C@@H](CC1CCCC1)C(=O)N1CC2(CC2)C[C@H]1C(=O)Nc1nccs1)NO shows Anti-bacterial activity (MIC), strain MSSE 15-5 of 1 µg/mL or higher.
Result string: not satisfied

Query string: Hi, just wondering whether O=C(C[C@@H](CC1CCCC1)C(=O)N1CC2(CC2)C[C@H]1C(=O)Nc1nc(C(F)(F)F)cs1)NO shows Anti-bacterial activity (MIC), strain MSSE 15-5 of 1 µg/mL or higher.
Result string: not satisfied

###

Tested on: Streptococcus pneoumoniae (SPN)
Experiment: MIC, two-fold agar dilution (CLSI), clinical isolates
Assay type: cell-based
Conditions: strain SPN 16-4
Text: 1. The invention adopts the two-fold agar dilution method recommended by the operating procedure of antimicrobial susceptibility testing set by American Clinical and Laboratory Standards Institute (CLSI) to determine the Minimum Inhibitory Concentration (MIC) of the test samples against the tested strains.
For each entry below, report its MIC (anti-bacterial activity) value.
Give bare numbers, in µg/mL.

Examples with answers:
structure_smiles_string: COC(=O)c1sccc1NC(=O)[C@@H]1CC2(CC2)CN1C(=O)[C@H](CC1CCCC1)CN(O)C=O
display_unit: µg/mL
numeric_readout: 4
//
structure_smiles_string: O=CN(O)C[C@@H](CC1CCCC1)C(=O)N1CC2(CC2)C[C@H]1C(=O)NC1CC1
display_unit: µg/mL
numeric_readout: 8
//
structure_smiles_string: CCCC[C@H](CN(O)C=O)C(=O)N1CC2(CC2)C[C@H]1C(=O)Nc1ccncn1
display_unit: µg/mL
numeric_readout: 0.25

Shift focus to the following entry.
Query string: What does the data say about its MIC (anti-bacterial activity)? Entry: O=CN(O)C[C@@H](CC1CCCC1)C(=O)N1CC2(CC2)C[C@H]1C(=O)Nc1ccc(N2CCOCC2)cc1
Result string: 2

###

Test system: methicillin-sensitive Staphylococcus epidermidis (MSSE)
Assay: MIC, two-fold agar dilution (CLSI), clinical isolates
Type: cell-based
Settings: strain MSSE 14-4
readout_label: MIC (anti-bacterial activity) (µg/mL)
Give bare numbers, in µg/mL.

Examples with answers:
structure_smiles_string: CCCC[C@H](CN(O)C=O)C(=O)N1CC2(CC2)C[C@H]1C(=O)Nc1cc[nH]n1
study_system: methicillin-sensitive Staphylococcus epidermidis (MSSE)
readout_label: MIC (anti-bacterial activity)
numeric_readout: 4
//
structure_smiles_string: CCCC[C@H](CN(O)C=O)C(=O)N1CC2(CC2)C[C@H]1C(=O)Nc1nccc(-c2cccnc2)n1
study_system: methicillin-sensitive Staphylococcus epidermidis (MSSE)
readout_label: MIC (anti-bacterial activity)
numeric_readout: 0.5
//
structure_smiles_string: CCCC[C@H](CN(O)C=O)C(=O)N1CC2(CC2)C[C@H]1c1nc(-c2cccnc2)no1
study_system: methicillin-sensitive Staphylococcus epidermidis (MSSE)
readout_label: MIC (anti-bacterial activity)
numeric_readout: 0.5
//
structure_smiles_string: CCCC[C@H](CN(O)C=O)C(=O)N1CC2(CC2)C[C@H]1c1nnc(-c2ccccn2)o1
study_system: methicillin-sensitive Staphylococcus epidermidis (MSSE)
readout_label: MIC (anti-bacterial activity)
numeric_readout: 1
//
structure_smiles_string: CCCC[C@H](CN(O)C=O)C(=O)N1CC2(CC2)C[C@H]1C(=O)Nc1ccc(C)c(Nc2nccc(-c3cccnc3)n2)c1
study_system: methicillin-sensitive Staphylococcus epidermidis (MSSE)
readout_label: MIC (anti-bacterial activity)
numeric_readout: 0.015
//
structure_smiles_string: CCCC[C@H](CN(O)C=O)C(=O)N1CC2(CC2)C[C@H]1C(=O)Nc1cc(C(C)(C)C)on1
study_system: methicillin-sensitive Staphylococcus epidermidis (MSSE)
readout_label: MIC (anti-bacterial activity)
numeric_readout: 0.015
//
structure_smiles_string: CCCC[C@H](CN(O)C=O)C(=O)N1CC2(CC2)C[C@H]1C(=O)Nc1ncccc1F
study_system: methicillin-sensitive Staphylococcus epidermidis (MSSE)
readout_label: MIC (anti-bacterial activity)
numeric_readout: 0.25
//
structure_smiles_string: CCCC[C@H](CN(O)C=O)C(=O)N1CC2(CC2)C[C@H]1c1nnc2ccccn12
study_system: methicillin-sensitive Staphylococcus epidermidis (MSSE)
readout_label: MIC (anti-bacterial activity)
numeric_readout: 0.5
//
structure_smiles_string: CCCC[C@H](CN(O)C=O)C(=O)N1CC2(CC2)C[C@H]1C(=O)Nc1ccc(F)c[n+]1[O-]
study_system: methicillin-sensitive Staphylococcus epidermidis (MSSE)
readout_label: MIC (anti-bacterial activity)
numeric_readout: 0.03
//
structure_smiles_string: CCCC[C@H](CN(O)C=O)C(=O)N1CC2(CC2)C[C@H]1C(=O)Nc1cccc(Nc2ncccn2)c1
study_system: methicillin-sensitive Staphylococcus epidermidis (MSSE)
readout_label: MIC (anti-bacterial activity)
numeric_readout: 0.25

Shift focus to the following entry.
Query string: What does the data say about its MIC (anti-bacterial activity)? Entry: CCCC[C@H](CN(O)C=O)C(=O)N1CC2(CC2)C[C@H]1c1nc2ccccc2[nH]1
Result string: 2

Reference source: patent US10738028B2
